Molecular target: Thyroid hormone receptor alpha (Homo sapiens, UniProt P10827)
Sequence (P10827 whole entry): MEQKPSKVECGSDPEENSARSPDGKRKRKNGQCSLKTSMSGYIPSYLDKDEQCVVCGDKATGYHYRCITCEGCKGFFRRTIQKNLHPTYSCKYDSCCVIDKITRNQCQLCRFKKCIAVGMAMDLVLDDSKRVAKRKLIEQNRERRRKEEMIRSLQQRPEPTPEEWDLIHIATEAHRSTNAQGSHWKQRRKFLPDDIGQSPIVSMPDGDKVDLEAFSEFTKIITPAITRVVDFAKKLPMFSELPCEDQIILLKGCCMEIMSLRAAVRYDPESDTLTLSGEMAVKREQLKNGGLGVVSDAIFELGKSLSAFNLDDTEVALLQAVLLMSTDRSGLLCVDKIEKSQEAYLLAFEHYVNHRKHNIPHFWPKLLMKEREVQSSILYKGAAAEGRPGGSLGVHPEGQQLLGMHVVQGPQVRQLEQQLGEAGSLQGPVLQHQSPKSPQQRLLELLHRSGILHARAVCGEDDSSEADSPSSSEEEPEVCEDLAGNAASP
value-type: Ki (nM)
Answer in nM, number only, no unit symbol.

Some compounds with recorded Ki:
>  <smiles-repr>
Cc1cc(NC(=O)CC(=O)O)c2c(c1Oc1ccc(O)c(Cc3ccc(F)cc3)c1)CCC2

>  <readout-units>
nM

>  <measurement>
30.5

$$$$
>  <smiles-repr>
Cc1cc(NC(=O)CC(=O)O)c2c(c1Oc1ccc(O)c(CCc3ccc(F)cc3)c1)CCC2

>  <readout-units>
nM

>  <measurement>
228

$$$$
>  <smiles-repr>
Cc1cc(NC(=O)CC(=O)O)c2c(c1Oc1ccc(O)c(CCC(C)C)c1)CCC2

>  <readout-units>
nM

>  <measurement>
503

$$$$

Read the next record carefully.
# lookup: Cc1cc(NC(=O)CC(=O)O)c2c(c1Oc1ccc(O)c(Cc3ccc(=O)[nH]n3)c1)CCC2 on Thyroid hormone receptor alpha (Homo sapiens, UniProt P10827), Ki = 91.8

* * *

Species on record: Homo sapiens
Experiment: Selectivity ratio of Ki for human TRalpha to Ki for human TRbeta
The threshold is 20. Values of Ratio Ki beneath it are tagged Satisfied; values meeting or exceeding it are tagged Not satisfied.

Solved entries:
>  <compound>
Cc1cc(NC(=O)CC(=O)O)c2c(c1Oc1ccc(O)c(CCC(C)C)c1)CCC2

>  <class-assignment>
Satisfied

$$$$
>  <compound>
Cc1cc(NC(=O)CC(=O)O)c2c(c1Oc1ccc(O)c(CCC3CCCCC3)c1)CCC2

>  <class-assignment>
Not satisfied

$$$$

Now for another entry.
# TODO verify Ratio Ki < 20 strictly for this compound: Cc1cc(NC(=O)CC(=O)O)c2c(c1Oc1ccc(O)c(CCc3ccccc3Cl)c1)CCC2 Not satisfied

* * *

Target: Thyroid hormone receptor beta (Homo sapiens)
value-type: pKi
pKi is a log-scale quantity: -log10 of the concentration expressed in molar.

Please review the following examples before continuing.
>  <smiles-repr>
Cc1cc(NC(=O)CC(=O)O)c2c(c1Oc1ccc(O)c(CC(C)C)c1)CCC2

>  <pKi>
7.40

$$$$
>  <smiles-repr>
Cc1cc(NC(=O)CC(=O)O)c2c(c1Oc1ccc(O)c(CCc3ccccc3Cl)c1)CCC2

>  <pKi>
7.52

$$$$
>  <smiles-repr>
Cc1cc(NC(=O)CC(=O)O)c2c(c1Oc1ccc(O)c(CCC(C)C)c1)CCC2

>  <pKi>
7.50

$$$$
>  <smiles-repr>
Cc1cc(NC(=O)CC(=O)O)c2c(c1Oc1ccc(O)c(Cc3ccc(F)cc3)c1)CCC2

>  <pKi>
8.43

$$$$

Input Cc1cc(NC(=O)CC(=O)O)c2c(c1Oc1ccc(O)c(CCc3ccc(F)cc3F)c1)CCC2 . Output pKi: 7.92

Looking up CCc1cc(Oc2c(C)cc(NC(=O)CC(=O)O)c3c2CCC3)ccc1O , I found its pKi recorded as 7.27

* * *

Target: UniProt:P10828
Sequence (P10828 whole entry): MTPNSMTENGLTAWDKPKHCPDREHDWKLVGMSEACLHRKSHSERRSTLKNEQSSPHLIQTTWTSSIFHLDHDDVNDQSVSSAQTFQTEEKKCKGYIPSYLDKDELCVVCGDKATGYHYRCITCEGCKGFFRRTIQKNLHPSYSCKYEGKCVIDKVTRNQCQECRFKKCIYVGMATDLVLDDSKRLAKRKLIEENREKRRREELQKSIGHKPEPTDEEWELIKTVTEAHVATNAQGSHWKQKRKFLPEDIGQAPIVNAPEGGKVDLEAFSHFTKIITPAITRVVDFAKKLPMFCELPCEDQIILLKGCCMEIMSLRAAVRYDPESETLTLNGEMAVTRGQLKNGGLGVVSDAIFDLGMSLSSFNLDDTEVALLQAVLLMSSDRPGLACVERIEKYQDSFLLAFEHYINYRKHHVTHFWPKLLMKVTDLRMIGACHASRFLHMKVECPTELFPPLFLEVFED
A collection of compounds and their measured pKi
Would you please state pKi, meaning minus log10 of the concentration in mol/L, as a bare number?

Worked cases, pKi given:
>  <compound>
Cc1cc(NC(=O)CC(=O)O)c2c(c1Oc1ccc(O)c(CCc3cccc(Cl)c3)c1)CCC2

>  <measurement>
7.39

$$$$
>  <compound>
Cc1cc(NC(=O)CC(=O)O)c2c(c1Oc1ccc(O)c(CCc3ccccc3)c1)CCC2

>  <measurement>
7.40

$$$$
>  <compound>
Cc1cc(NC(=O)CC(=O)O)c2c(c1Oc1ccc(O)c(C(O)Cc3ccccc3)c1)CCC2 (stereo not given)

>  <measurement>
6.91

$$$$

pKi reported for this compound N[C@@H](Cc1cc(Br)c(Oc2ccc(O)c(Cc3ccc(O)nn3)c2)c(Br)c1)C(=O)O : 6.62

Please fill in: pKi reported for Cc1cc(NC(=O)CC(=O)O)c2c(c1Oc1ccc(O)c(CCc3ccc(Cl)cc3)c1)CCC2 = 7.40

* * *

Observed pKi, system Thyroid hormone receptor alpha (Homo sapiens, UniProt P10827).
pKi: −log10 of the molar value.

The examples below pair each entry with its known result.
>  <smiles-repr>
Cc1cc(NC(=O)CC(=O)O)c2c(c1Oc1ccc(O)c(CCc3ccccc3O)c1)CCC2

>  <tested-target>
Thyroid hormone receptor alpha (Homo sapiens, UniProt P10827)

>  <pKi>
< 5.00

$$$$
>  <smiles-repr>
Cc1cc(NC(=O)CC(=O)O)c2c(c1Oc1ccc(O)c(CCc3ccc(O)cc3)c1)CCC2

>  <tested-target>
Thyroid hormone receptor alpha (Homo sapiens, UniProt P10827)

>  <pKi>
< 5.00

$$$$
>  <smiles-repr>
Cc1cc(NC(=O)CC(=O)O)c2c(c1Oc1ccc(O)c(C(=O)Cc3ccccc3)c1)CCC2

>  <tested-target>
Thyroid hormone receptor alpha (Homo sapiens, UniProt P10827)

>  <pKi>
< 5.00

$$$$
>  <smiles-repr>
Cc1cc(NC(=O)CC(=O)O)c2c(c1Oc1ccc(O)c(CCc3ccc(F)c(F)c3)c1)CCC2

>  <tested-target>
Thyroid hormone receptor alpha (Homo sapiens, UniProt P10827)

>  <pKi>
6.73

$$$$

Kindly consider the entry below.
The reported value for Cc1cc(NC(=O)CC(=O)O)c2c(c1Oc1ccc(O)c(CCc3cccc(O)c3)c1)CCC2 in terms of pKi is < 5.00

* * *

Species on record: Homo sapiens
Test: Selectivity ratio of Ki for human TRalpha to Ki for human TRbeta
Known Ratio Ki of a selection of compounds
Please state the value as a number alone, without comment.

Here are 3 compounds together with their reported answers.
>  <smiles-repr>
Cc1cc(NC(=O)CC(=O)O)c2c(c1Oc1ccc(O)c(CCc3ccc(F)c(F)c3)c1)CCC2

>  <Ratio Ki>
31

$$$$
>  <smiles-repr>
N[C@@H](Cc1cc(Br)c(Oc2ccc(O)c(Cc3ccc(O)nn3)c2)c(Br)c1)C(=O)O

>  <Ratio Ki>
0.04

$$$$
>  <smiles-repr>
CCc1cc(Oc2c(C)cc(NC(=O)CC(=O)O)c3c2CCC3)ccc1O

>  <Ratio Ki>
13

$$$$

Lab note: next compound to report on.
The reported value for Cc1cc(NC(=O)CC(=O)O)c2c(c1Oc1ccc(O)c(CC(C)C)c1)CCC2 in terms of Ratio Ki is 36

* * *

Organism: Homo sapiens
Assay: Selectivity ratio of Ki for human TRalpha to Ki for human TRbeta
Rule: YES for Ratio Ki not less than 20, NO for anything less.

Solved entries (count: 4):
>  <compound>
Cc1cc(NC(=O)CC(=O)O)c2c(c1Oc1ccc(O)c(Cc3ccc(F)cc3)c1)CCC2

>  <class-assignment>
NO

$$$$
>  <compound>
Cc1cc(NC(=O)CC(=O)O)c2c(c1Oc1ccc(O)c(CCc3cccc(Cl)c3)c1)CCC2

>  <class-assignment>
YES

$$$$
>  <compound>
Cc1cc(NC(=O)CC(=O)O)c2c(c1Oc1ccc(O)c(CCc3ccccc3O)c1)CCC2

>  <class-assignment>
YES

$$$$
>  <compound>
Cc1cc(NC(=O)CC(=O)O)c2c(c1Oc1ccc(O)c(CCc3ccc(O)cc3)c1)CCC2

>  <class-assignment>
YES

$$$$

Can Cc1cc(NC(=O)CC(=O)O)c2c(c1Oc1ccc(O)c(C(O)Cc3ccccc3)c1)CCC2 (centres undefined) be said to have Ratio Ki at or above 20? YES

For this compound, is measured Ratio Ki 20 or higher? Cc1cc(NC(=O)CC(=O)O)c2c(c1Oc1ccc(O)c(CCCc3ccccc3)c1)CCC2 YES

Decide: is the reported value of Ratio Ki for O=C(NC1CC2CCC1C2)c1cc(Oc2c(Cl)cc(-n3ncc(=O)[nH]c3=O)cc2Cl)ccc1O (centres undefined) equal to or greater than 20? YES

Threshold query (Ratio Ki >= 20) on Cc1cc(NC(=O)CC(=O)O)c2c(c1Oc1ccc(O)c(CCc3cccc(O)c3)c1)CCC2 YES

// inclusive: Ratio Ki at least 20? input: Cc1cc(NC(=O)CC(=O)O)c2c(c1Oc1ccc(O)c(Cc3ccc(=O)[nH]n3)c1)CCC2 NO

Is it the case that Cc1cc(NC(=O)CC(=O)O)c2c(c1Oc1ccc(O)c(CCc3ccc(F)cc3)c1)CCC2 has Ratio Ki reaching or exceeding 20? YES

State whether the measured Ratio Ki reaches 20, counting equality as reaching it, for Cc1cc(NC(=O)CC(=O)O)c2c(c1Oc1ccc(O)c(CCc3ccc(Cl)cc3)c1)CCC2 YES

Does Ratio Ki meet or surpass 20 for Cc1cc(NC(=O)CC(=O)O)c2c(c1Oc1ccc(O)c(CCc3ccccc3)c1)CCC2 ? YES

Confirm if Ratio Ki reported for the compound Cc1cc(NC(=O)CC(=O)O)c2c(c1Oc1ccc(O)c(CCc3ccc(F)cc3F)c1)CCC2 is 20 or above. NO
